Entry source: patent US7033772B1

# systemName: hsFATP4 (Homo sapiens)
# Construct: expressed in transfected cells; host or cells: 293 cells (human kidney), stably transfected with pIRES-neo-hsFATP4, G418-selected
# Sequence (Q6P1M0 whole entry): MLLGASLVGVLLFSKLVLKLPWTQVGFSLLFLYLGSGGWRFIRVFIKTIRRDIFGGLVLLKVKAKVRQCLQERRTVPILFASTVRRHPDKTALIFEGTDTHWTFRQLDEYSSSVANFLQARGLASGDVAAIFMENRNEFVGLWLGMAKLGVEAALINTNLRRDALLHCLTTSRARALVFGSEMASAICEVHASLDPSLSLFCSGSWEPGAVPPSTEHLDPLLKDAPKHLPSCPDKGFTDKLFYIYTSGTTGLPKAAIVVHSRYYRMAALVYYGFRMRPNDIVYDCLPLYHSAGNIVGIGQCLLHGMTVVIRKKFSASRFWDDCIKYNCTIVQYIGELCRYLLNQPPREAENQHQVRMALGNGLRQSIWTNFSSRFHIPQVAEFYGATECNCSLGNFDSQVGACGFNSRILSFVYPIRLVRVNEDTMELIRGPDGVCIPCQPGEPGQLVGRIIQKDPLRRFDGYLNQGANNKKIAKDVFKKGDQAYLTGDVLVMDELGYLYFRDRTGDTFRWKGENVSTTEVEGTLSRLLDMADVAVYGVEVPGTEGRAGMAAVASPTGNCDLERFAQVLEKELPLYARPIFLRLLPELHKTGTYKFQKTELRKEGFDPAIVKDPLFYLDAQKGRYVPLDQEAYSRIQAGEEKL
# test: Uptake of radiolabeled substrates by 293 cells stably expressing FATP4
# Type: cell-based
# conditionNotes: stably transfected 293 cells vs vector
endpointLabel: Effect of hsFATP4 expression on uptake of the substrate (in words)

[[record]]
compound = "CCCCCCCC(=O)O [Octanoate, Caprylic Acid]"
systemname = "hsFATP4 (Homo sapiens)"
testvalue = "not"

[[record]]
compound = "CC(C)CCC[C@@H](C)[C@H]1CC[C@H]2[C@@H]3CC=C4C[C@@H](O)CC[C@]4(C)[C@H]3CC[C@]12C"
systemname = "hsFATP4 (Homo sapiens)"
testvalue = "not"

[[record]]
compound = "CCCCC/C=C\\C/C=C\\CCCCCCCC(=O)O [Linolate, Linoleic Acid]"
systemname = "hsFATP4 (Homo sapiens)"
testvalue = "not"

